system: L1210 leukemia ip in BDF1 mice, survival T/C; test: NCI In Vivo Anticancer Drug Screen. Data for tumor model L1210 Leukemia (intraperitoneal) in B6D2F1 (BDF1) mice; conditions: endpoint: mean survival time; dose: 100.0 mg/kg/injection; schedule: Q04DX003 (ip); vehicle: Klucel (hydroxypropylcellulose) (HPC); higher = longer survival
Inconclusive results and toxic doses are left out.
Test readout: T/C

{"columns": ["Compound", "T/C"],
 "data": [
  ["Cc1nc(N)[nH]c(=O)c1N", "100 % of control"],
  ["Cc1ccc([N+](=O)[O-])c(O)c1[N+](=O)[O-]", "102 % of control"],
  ["CCOC(=O)C(C(=O)OCC)C1c2ccccc2NC(=O)c2ccccc21 (stereo unspecified)", "90 % of control"],
  ["O=C1N(c2ccccc2)C(=O)N1c1ccccc1", "93 % of control"],
  ["COc1cc(NC=O)c2ncccc2c1", "100 % of control"],
  ["Cc1cc(=O)[nH]c2c(OCOc3cccc4c(C)cc(=O)[nH]c34)cccc12", "97 % of control"],
  ["CC(=O)Nc1ccc2ccccc2c1Br", "95 % of control"],
  ["O=[N+]([O-])c1ccc(Oc2ccc(Br)cc2)cc1", "104 % of control"],
  ["COc1ccc(NN=Nc2ccccc2C#N)cc1", "106 % of control"],
  ["CC(=O)Nc1ccc(OC(=O)Nc2ccc(C)cc2[N+](=O)[O-])cc1", "91 % of control"]
]}

Record T/C per entry; entries follow.
1. c1ccc2cc(N=Nc3ccc4ccccc4c3)ccc2c1
2. Cc1cc(C)nc(NC(=O)COc2ccc(Cl)cc2)c1

**A:**
["95 % of control", "101 % of control"]

The following compounds each have a reported value; give each one's T/C.
1. CC1=C(N2CC2)C(=O)c2ccccc2C1=O
2. CC(C)(C)OOC(=O)c1ccccc1
3. C(=C/c1ccc(/C=C/c2ccccc2)cc1)/c1ccccc1
4. Cc1ccc(NC(=S)Nc2ccccc2)cc1
5. O=C(Nc1ccc2ccccc2c1)c1ccccc1

**A:**
1: 102 % of control; 2: 107 % of control; 3: 98 % of control; 4: 97 % of control; 5: 97 % of control

Hi, could you look up T/C for each item in my list?
1. C=CCOC1C=CC=CC=C1
2. CCOC(=O)c1ccc(N=NN(C)CC(C)C)cc1
3. COc1cc(C)c2c([N+](=O)[O-])cc([N+](=O)[O-])c(OC)c2n1
4. N#Cc1ccc(Br)cc1[N+](=O)[O-]
5. CCOc1ccccc1-n1c(-c2ccc([N+](=O)[O-])cc2)csc1=NC(=O)c1cccc([N+](=O)[O-])c1
6. Oc1cccc2cccnc12.[Al]
7. CCOC(=O)CCCN(c1ccccc1CC(=O)OCC)S(C)(=O)=O

**A:**
1. 94 % of control
2. 105 % of control
3. 106 % of control
4. 89 % of control
5. 101 % of control
6. 102 % of control
7. 102 % of control

Give T/C for each listed item.
1. CSc1ccc(N=Cc2ccc3c(c2)OCO3)cc1
2. CCOC(=O)c1c(N)sc(C)c1C

**A:**
102 % of control
102 % of control
